Biological target: human PDHK2 (hPDHK2) (Homo sapiens, UniProt Q15119)
Assay: Inhibitory action of PDHK2 activity (residual PDH activity, NADH absorbance at 340 nm)
Details: PDH/hPDHK2 complex, PDHK reaction 45 min at room temperature
Criterion: IC50 strictly less than 10 nM. Met: 1 (yes). Not met: 0 (no).

- CC(=O)N1CC(COc2cc3n(n2)C[C@H](C)n2c-3cnc2[C@@](C)(O)C(F)(F)F)C1: 0 (no)
- C[C@H]1Cn2c(nnc2C(C)(C(F)(F)F)C(F)(F)F)-c2cnc([C@@](C)(O)C(F)(F)F)n21: 1 (yes)
- C[C@H]1Cn2nc(OCC(=O)N3CC(F)(F)C3)cc2-c2cnc([C@@](C)(O)C(F)(F)F)n21: 0 (no)
- C[C@H]1Cn2c(nnc2C(C)(C)F)-c2cnc([C@@](C)(O)C(F)(F)F)n21: 0 (no)
- C[C@H]1Cn2c(nnc2C2(c3ccc(Cl)cc3)COC2)-c2cnc([C@@](C)(O)C(F)(F)F)n21: 1 (yes)
- C[C@H]1Cc2cc(C#N)ccc2-c2cnc([C@@](C)(O)C(F)(F)F)n21 [Example 94]: 1 (yes)
- C[C@H]1Cc2ccccc2-c2cnc([C@@](C)(O)C(F)(F)F)n21 (racemic): 0 (no)
- C[C@H]1Cn2nc(OCC(O)(C(F)(F)F)C(F)(F)F)cc2-c2cnc([C@@](C)(O)C(F)(F)F)n21: 0 (no)
- C[C@H]1Cn2ncc(Cl)c2-c2cnc([C@@](C)(O)C(F)(F)F)n21: 0 (no)
- C[C@H]1Cc2c(C(F)(F)F)noc2-c2cnc([C@@](C)(O)C(F)(F)F)n21 (racemic): 0 (no)
- C[C@H]1Cn2nc(C(=O)N3CC(F)(F)C3)cc2-c2cnc([C@@](C)(O)C(F)(F)F)n21: 0 (no)
- C[C@H]1Cn2c(cnc2C(F)(F)F)-c2cnc([C@@](C)(O)C(F)(F)F)n21: 1 (yes)
- C[C@H]1Cn2c(-c3ccc(F)c(OC(C)(C)C)c3)nnc2-c2cnc([C@@](C)(O)C(F)(F)F)n21: 0 (no)
- C[C@H]1Cn2nc(OCC(C)(C)C#N)cc2-c2cnc([C@@](C)(O)C(F)(F)F)n21: 0 (no)
- C[C@H]1Cn2c(cc(=O)n2C(F)F)-c2cnc([C@@](C)(O)C(F)(F)F)n21: 0 (no)
